assay_summary: Competitive antagonist activity at human CB2R expressed in CHO cell membranes assessed as rightward shift of N-cycloheptyl-1,2-dihydro-5-bromo-1-(4-fluoro benzyl)-6-methyl-2-oxo-pyridine-3-carboxamide-induced GTPgammaS binding by measuring N-cycloheptyl-1,2-dihydro-5-bromo-1-(4-fluoro benzyl)-6-methyl-2-oxo-pyridine-3-carboxamide EC50 at 300
readout: pEC50
pEC50 is defined as minus the log10 of a concentration measured in mol/L.

Query: I have this compound here, `COc1ccc(-c2cc(C(=O)NC3CCCCCC3)c(=O)n(Cc3ccc(F)cc3)c2C)cc1` , and I need its recorded pEC50.
Result: 6.72

---

assay_summary: Competitive antagonist activity at human CB2R expressed in CHO cell membranes assessed as rightward shift of N-cycloheptyl-1,2-dihydro-5-bromo-1-(4-fluoro benzyl)-6-methyl-2-oxo-pyridine-3-carboxamide-induced GTPgammaS binding by measuring N-cycloheptyl-1,2-dihydro-5-bromo-1-(4-fluoro benzyl)-6-methyl-2-oxo-pyridine-3-carboxamide EC50 at 1000
readout: pEC50
pEC50 is defined as minus the log10 of a concentration measured in mol/L.

Query: I have this molecule here, `COc1ccc(-c2cc(C(=O)NC3CCCCCC3)c(=O)n(Cc3ccc(F)cc3)c2C)cc1` , and I need its recorded pEC50.
Result: 6.15

---

assay_summary: Non-competitive antagonist activity at human CB2R expressed in CHO cell membranes assessed as N-cycloheptyl-1,2-dihydro-1-(4-fluorobenzyl)-6-methyl-2-oxo-5-phenyl-pyridine-3-carboxamide EC50 at 100 nM preincubated with compound for 30 mins followed by GTPgammaS addition and measured after 90 mins by [35S]GTPgammaS assay (Rvb = 19.4 nM)
readout: EC50 (nM)
Numbers only here, please. The scale is nM.

Query: I have this compound here, `COc1ccc(-c2cc(C(=O)NC3CCCCCC3)c(=O)n(Cc3ccc(F)cc3)c2C)cc1` , and I need its recorded EC50.
Result: 102
